# System: DU-145 prostate
# protocolDescription: NCI-60 one-dose screen, 48 h
# experimentalContext: 10 µM
# Experimental: Cells are grown in 96 well plates and exposed to the test compound for 48 hours. Compounds are tested at a single concentration, which is 10^-5 M for most compounds. The reported endpoint is percent growth (GI% or GIPRCNT), where numbers from 0 - 100% represent growth inhibition, and numbers from -100% - 0 represent cell death. For example, a value of 40 represents 60% growth inhibition. A value of 0 means no net growth occurred over the course of the experiment. […]
About 83,000 compounds went through this panel and 20% of them were active in at least one assay; those are over-represented in the sample as a whole. Calls of active or inactive are those of the source. How the source made its calls: active means growth percent below 10; inactive means the rest.
Thanks in advance; please answer with one of these: 1 (yes) for active, 0 (no) for inactive

Recorded test outcome, item `COc1ccc(OC)c(/C=N/NC(=O)c2ccc3nc(-c4ccc(Cl)cc4)[nH]c3c2)c1`
0 (no)

Recorded test outcome, item CC1=C(c2cc(-c3ccc(Cl)cc3)c(C#N)c(N)n2)C(c2ccccc2)NC(=S)N1 (configuration not stated)
0 (no)

Recorded test outcome, item `CNC(=O)c1cccc(N2CCc3c2ccc(NC(=O)Nc2ccc(N4CCN(C)CC4)c(C(F)(F)F)c2)c3F)c1`
1 (yes)

Recorded test outcome, item `O/N=C(\CSc1nnc(-c2c[nH]c3ccccc23)n1-c1ccccc1)c1ccc(Br)cc1`
1 (yes)

Recorded test outcome, item `O=c1cc(-c2ccccc2)oc2cc(OCCCNCc3ccccc3)cc(O)c12`
0 (no)

Recorded test outcome, item O=C(c1ccc(O)cc1)C1[C@H](c2ccccc2Br)[C@@H](c2ccccc2)NC12C(=O)Nc1ccc(Br)cc12 (some centres not stated)
0 (no)

Recorded test outcome, item `Cc1noc2c(Cc3ccccc3)nn(CC(=O)N/N=C/c3ccc(F)cc3)c(=O)c12`
0 (no)

Recorded test outcome, item `COc1ccc(C(=O)Nc2ccc(-c3ccc4c(c3)NC(=O)/C4=C\c3ccc[nH]3)cc2)cc1`
1 (yes)

Recorded test outcome, item `O=C(N/N=C/c1ccc(-c2cccc([N+](=O)[O-])c2)o1)c1[nH]c2ccc(Br)cc2c1-c1ccccc1`
1 (yes)

Recorded test outcome, item `NS(=O)(=O)c1ccc(NC(=O)CSc2ccc(-c3ccc(Cl)cc3)nn2)c(Br)c1`
0 (no)

Recorded test outcome, item CN1C(=O)N(C)C2SC(N/N=C/c3ccccc3)=NC21 (configuration not stated)
0 (no)

Recorded test outcome, item `Nc1nnc(-c2c[nH]c3ncccc23)c(-c2c[nH]c3ccc(Br)cc23)n1`
0 (no)

Recorded test outcome, item `Cc1cc(C)nc(/N=C(\N)Nc2ccc(S(=O)(=O)Nc3nc(C)cc(C)n3)cc2)n1`
0 (no)

Recorded test outcome, item `CC(=O)Nc1nc(-c2ccc(N3CCN(C)CC3)c(NS(=O)(=O)c3ccc(C(F)(F)F)cc3)c2)cs1`
0 (no)

Recorded test outcome, item `O=c1oc2ccccc2cc1-c1csc(N=Nc2c(O)[nH]c3ccc(Br)cc23)n1`
0 (no)

Recorded test outcome, item `O=C(CNc1nc(-c2ccccc2)cs1)Nc1cccc([N+](=O)[O-])c1`
1 (yes)

Recorded test outcome, item `Cc1ccc(-c2cc(-c3cc4ccccc4nc3Cl)[nH]c(=S)n2)cc1`
0 (no)

Recorded test outcome, item `Brc1ccc(N/N=C/c2c[nH]c3ccccc23)nc1`
0 (no)

Recorded test outcome, item `COc1ccc(-c2nc(S(=O)(=O)c3ccc(C)cc3)c(S(=O)(=O)CC(=O)N(C)Cc3ccccc3)o2)cc1`
0 (no)

Recorded test outcome, item `COc1ccc(CCN2C(=O)/C(=C/c3csc(C#N)n3)SC2=S)cc1`
1 (yes)

Recorded test outcome, item `Cc1ccc(-c2nc(Nc3ccccc3C(=O)O)c3ccccc3n2)cc1`
0 (no)

Recorded test outcome, item `O=C1Nc2cc(-c3ccc(NC(=O)c4cccs4)cc3)ccc2/C1=C/c1ccc[nH]1`
0 (no)

Recorded test outcome, item COC1CC(Cn2cc(COc3ccc4ccc(=O)oc4c3)nn2)C(OCc2ccccc2)C(OCc2ccccc2)C1OCc1ccccc1 (configuration not stated)
0 (no)

Recorded test outcome, item `CNCc1cccc2c1OCCCCCC[C@@](C)(O)CC1(CC1)S(=O)(=O)c1ccc(cc1)-c1cnc(N)c(n1)C(=O)N2`
1 (yes)

Recorded test outcome, item `O=c1oc2ccc(-c3ccc(F)cc3F)cc2c(=O)n1-c1ccc(F)c(Cl)c1`
0 (no)

Recorded test outcome, item `O=C(Nc1ccc(Cl)c([N+](=O)[O-])c1)Nc1ccc(Cl)c([N+](=O)[O-])c1`
0 (no)

Recorded test outcome, item `Cc1cccc(-c2nc(Nc3ccccc3C(=O)O)c3ccccc3n2)c1`
0 (no)

Recorded test outcome, item `O=C(Nc1nc2ccccc2s1)c1ccc(Br)cc1`
0 (no)

Recorded test outcome, item `Cc1ccc(-c2nc3ccc(C(=O)N=Nc4c(O)[nH]c5ccc([N+](=O)[O-])cc45)cc3[nH]2)cc1`
0 (no)

Recorded test outcome, item `CC(C)C1=C[C@@]23CC[C@@H]4[C@](C)(CCC[C@]4(C)C(=O)NCc4ccccc4)[C@H]2C[C@@H]1[C@H]1C(=O)OC(=O)[C@H]13`
0 (no)

Recorded test outcome, item `O=C(Nc1cccc(C(F)(F)F)c1)c1cncc(C#Cc2cnc3cccnn23)c1`
0 (no)

Recorded test outcome, item `O=C(CNc1nc(-c2ccccc2)cs1)Nc1ccc([N+](=O)[O-])cc1Cl`
0 (no)
